Test: Ratio of drug AUC lung to blood in Balb/c mouse at 2 mg/kg, administered intranasally
Conditions: lung and blood, inhaled or intranasal
Assay Metric: lung-to-blood AUC ratio
Lab note: record the figure alone, no unit after it.

Item: CC[C@H]1OC(=O)[C@H](C)[C@@H](O[C@H]2C[C@@](C)(OC)[C@@H](O)[C@H](C)O2)[C@H](C)[C@@H](O[C@@H]2O[C@H](C)C[C@H](N(C)C)[C@H]2O)[C@](C)(O)C[C@@H](C)CN(CCCNC(=O)[C@H]2[C@H](C)C[C@H]3[C@@H]4CCC5=CC(=O)C=C[C@]5(C)[C@@]4(F)[C@@H](O)C[C@@]32C)[C@H](C)[C@@H](O)[C@]1(C)O | lung-to-blood AUC ratio: 53

----------
Experiment: AUC (0 to infinity) in Balb/c mouse blood at 2 mg/kg, administered intranasally
Type: ADME, organism-based
Parameters: time infinity, dose 2 mg/kg, route nasal
Conditions: whole blood, inhaled or intranasal
Assay Metric: AUC(0-inf)
Give the number first and the unit second.

Item: CC[C@H]1OC(=O)[C@H](C)[C@@H](O[C@H]2C[C@@](C)(OC)[C@@H](O)[C@H](C)O2)[C@H](C)[C@@H](O[C@@H]2O[C@H](C)C[C@H](N(C)C)[C@H]2O)[C@](C)(O)C[C@@H](C)CN(CCCNC(=O)[C@H]2[C@H](C)C[C@H]3[C@@H]4CCC5=CC(=O)C=C[C@]5(C)[C@@]4(F)[C@@H](O)C[C@@]32C)[C@H](C)[C@@H](O)[C@]1(C)O | AUC(0-inf): 181 ng·h/mL

----------
Test: Half life in Balb/c mouse lung at 2 mg/kg, administered intranasally
Type: ADME, organism-based
Design: dose 2 mg/kg
Settings: inhaled or intranasal
Assay Metric: half-life (h)
The response must be a number in h with no trailing unit.

Item: CC[C@H]1OC(=O)[C@H](C)[C@@H](O[C@H]2C[C@@](C)(OC)[C@@H](O)[C@H](C)O2)[C@H](C)[C@@H](O[C@@H]2O[C@H](C)C[C@H](N(C)C)[C@H]2O)[C@](C)(O)C[C@@H](C)CN(CCCNC(=O)[C@H]2[C@H](C)C[C@H]3[C@@H]4CCC5=CC(=O)C=C[C@]5(C)[C@@]4(F)[C@@H](O)C[C@@]32C)[C@H](C)[C@@H](O)[C@]1(C)O | half-life: 20

----------
Biological target: UniProtKB P04150
Sequence (P04150 whole entry): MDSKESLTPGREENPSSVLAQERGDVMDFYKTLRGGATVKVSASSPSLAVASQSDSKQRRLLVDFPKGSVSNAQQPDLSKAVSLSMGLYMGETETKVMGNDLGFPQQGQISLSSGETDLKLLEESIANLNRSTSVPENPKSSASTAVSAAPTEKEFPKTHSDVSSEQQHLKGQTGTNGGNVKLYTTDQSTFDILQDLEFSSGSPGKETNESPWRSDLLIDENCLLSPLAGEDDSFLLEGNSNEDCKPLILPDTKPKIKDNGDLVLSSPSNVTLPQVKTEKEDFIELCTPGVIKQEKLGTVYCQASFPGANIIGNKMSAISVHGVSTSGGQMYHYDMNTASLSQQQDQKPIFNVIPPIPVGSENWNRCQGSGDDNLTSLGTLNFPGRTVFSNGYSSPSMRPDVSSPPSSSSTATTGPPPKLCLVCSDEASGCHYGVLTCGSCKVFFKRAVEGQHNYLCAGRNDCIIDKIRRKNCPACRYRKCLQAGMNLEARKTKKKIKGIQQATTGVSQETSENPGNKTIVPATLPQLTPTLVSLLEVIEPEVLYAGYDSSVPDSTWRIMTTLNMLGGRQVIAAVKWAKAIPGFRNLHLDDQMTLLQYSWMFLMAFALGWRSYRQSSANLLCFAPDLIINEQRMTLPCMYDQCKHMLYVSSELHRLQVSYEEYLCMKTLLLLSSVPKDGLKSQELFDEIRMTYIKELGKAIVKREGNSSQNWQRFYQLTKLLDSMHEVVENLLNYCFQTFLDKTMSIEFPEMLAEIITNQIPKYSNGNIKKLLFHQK
Test: Displacement of [3H]-dexamethasone human glucocorticoid receptor alpha expressed in 293 MSR cells after 60 mins by scintillation counting
Assay type: cell-based
Would you mind telling me the reported EC50 of each entry?

Assay UniProtKB P04150, sample CC[C@H]1OC(=O)[C@H](C)[C@@H](O[C@H]2C[C@@](C)(OC)[C@@H](O)[C@H](C)O2)[C@H](C)[C@@H](O[C@@H]2O[C@H](C)C[C@H](N(C)C)[C@H]2O)[C@](C)(O)C[C@@H](C)CN(CCCNC(=O)[C@H]2CC[C@H]3[C@@H]4CCC5=CC(=O)CC[C@]5(C)[C@H]4[C@@H](O)C[C@]23C)[C@H](C)[C@@H](O)[C@]1(C)O , EC50 read: > 25 µM

Assay UniProtKB P04150, sample CC[C@H]1OC(=O)[C@H](C)[C@@H](O[C@H]2C[C@@](C)(OC)[C@@H](O)[C@H](C)O2)[C@H](C)[C@@H](O[C@@H]2O[C@H](C)C[C@H](N(C)C)[C@H]2O)[C@](C)(O)C[C@@H](C)CN(CCCNC(=O)[C@@]2(O)[C@H](C)C[C@H]3[C@@H]4C[C@H](F)C5=CC(=O)C=C[C@]5(C)[C@@]4(F)[C@@H](O)C[C@@]32C)[C@H](C)[C@@H](O)[C@]1(C)O , EC50 read: > 25 µM

Assay UniProtKB P04150, sample CC[C@H]1OC(=O)[C@H](C)[C@@H](O[C@H]2C[C@@](C)(OC)[C@@H](O)[C@H](C)O2)[C@H](C)[C@@H](O[C@@H]2O[C@H](C)C[C@H](N(C)C)[C@H]2O)[C@](C)(O)C[C@@H](C)CN(CCCNC(=O)[C@@]2(O)CC[C@H]3[C@@H]4CCC5=CC(=O)CC[C@]5(C)[C@H]4[C@@H](O)C[C@@]32C)[C@H](C)[C@@H](O)[C@]1(C)O , EC50 read: > 25 µM
